TESTED TARGET: DLG1_3, Q12959
Sequence (Q12959 457-571): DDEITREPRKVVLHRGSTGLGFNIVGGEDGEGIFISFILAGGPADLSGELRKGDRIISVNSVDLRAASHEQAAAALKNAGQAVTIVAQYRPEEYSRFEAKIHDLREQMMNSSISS
TEST: holdup assay
Set-up: key: below the threshold = too weak to quantify, mostly under pKd 3.1 to 4
CONDITION DETAILS: plain residues with an end cap or a label only (N-terminal biotin on a linker: ttds)
Reported pKd by item:
Answer as a number with no unit attached.

>  <BINDER>
SSIDLWETAL [SLC15A5, A6NIM6]

>  <NUMERIC VALUE>
4.22

$$$$
>  <BINDER>
FVETQHQTQV [FAT3, Q8TDW7]

>  <NUMERIC VALUE>
3.95

$$$$

Entry GARVSKETPL [MAPK12, P53778] : reported pKd = ? 3.95

The values you see were collected from paper PMC9482650.
